Attribution: ChEMBL document CHEMBL1201862

tested on: KM12; assay: NCI tumour cell line growth inhibition, 48 h
The source made the active and inactive calls. No stated cut-off is given here; in the data, active = GI50 up to about 1.1 µM and inactive = higher.
Classes used: Yes for active, No for inactive

{"compound": "C/C=C(/C)C(=O)O[C@H]1C(C)=C[C@]23C(=O)[C@@H](C=C(COC(C)=O)[C@@H](O)[C@]12O)[C@H]1[C@@H](C[C@H]3C)[C@@]1(C)OC(=O)/C(C)=C\\C", "cat": "No"}
{"compound": "CC1(C)CC(=O)c2c(nc3ccc4ccccc4c3c2-c2ccc(NC(=O)CCCCC(=O)Nc3ccc(-c4c5c(nc6ccc7ccccc7c46)CC(C)(C)CC5=O)cc3)cc2)C1", "cat": "No"}
{"compound": "Cc1noc(C)c1CCCOC1COc2ccccc2OCCOCCOc2ccccc2OC1", "cat": "No"}
{"compound": "Cc1cc(=O)oc2c(CNC(CC(C)C)C(=O)O)c(O)ccc12 (stereo not drawn)", "cat": "No"}
{"compound": "COc1ccc(C2=C3c4cc(OC)c(OC)cc4CCN3C(=S)SS2)cc1OC", "cat": "No"}
{"compound": "CCc1ccc(/N=C\\c2cc(OC)c(OC)c(OC)c2)cc1", "cat": "No"}
{"compound": "Cc1ccc(NCC2CC/C(=C\\c3ccc(Cl)cc3)C2=O)cc1 (stereo not drawn)", "cat": "No"}
{"compound": "COc1cc(C2C(Cl)C(=O)N2NC(=O)Cc2ccccc2)cc(Br)c1O (stereo not drawn)", "cat": "No"}
{"compound": "CO/C(N)=C(C#N)/N=C/c1cccnc1", "cat": "No"}
{"compound": "Cl.O=C(O)c1cccnc1", "cat": "No"}
{"compound": "CC(=O)/C=C/c1ccc(C)cc1", "cat": "No"}
{"compound": "COc1ccccc1NC(=S)N/N=C/c1ccccn1", "cat": "Yes"}
{"compound": "CN(C)CCCNC(=O)CCNC(=O)c1cc(NC(=O)c2cc(NC(=O)c3cc(NC(=O)c4nc(NC(=O)CCCNC(=O)c5cc(NC(=O)c6cc(NC(=O)c7cc(NC(=O)c8nccn8C)cn7C)cn6C)cn5C)cn4C)cn3C)cn2C)cn1C", "cat": "No"}
{"compound": "N#CCC(=O)N/N=C1/C(=O)N(c2ccc(Cl)cc2)C(=O)C(=O)C1c1nc2ccccc2s1 (stereo not drawn)", "cat": "No"}
{"compound": "COc1ccc(OCc2ccc3nc(-c4ccccc4)c(Cl)nc3c2)cc1", "cat": "No"}
{"compound": "COc1ccc(C2=C3SC=c4ccccc4=C3ON=C2c2ccccc2)cc1", "cat": "No"}
{"compound": "Ic1cccc(/C=C/CN2CCN(CCOC(c3ccccc3)c3ccccc3)CC2)c1", "cat": "No"}
{"compound": "NNC(=O)c1ccccc1Nc1ccccc1C(=O)NN", "cat": "No"}
